Experiment: Clearance in Sprague-Dawley rat plasma at 1 mg/kg, iv or 3 mg/kg, po by LC-ESI-MS/MS analysis
Format: ADME, organism-based
RECORDED_ENDPOINT: clearance (mL/min/kg)
Answers are plain numbers, in mL/min/kg.

As a guide, the following entries are already answered.
CC[C@@H]1C[C@H](N(Cc2cc(C(F)(F)F)cc(C(F)(F)F)c2)c2ncc(-c3cnn(C)c3)cn2)C[C@H](CC)N1C(=O)O[C@H]1CC[C@H](C(=O)O)CC1	1.5
CC[C@@H]1C[C@H](N(Cc2cc(C(F)(F)F)cc(C(F)(F)F)c2)c2ncc(N3CCOCC3)cn2)C[C@H](Cc2ccccc2)N1C(=O)OC(C)(C)C	1.67
CC[C@@H]1C[C@H](N(Cc2cc(C(F)(F)F)cc(C(F)(F)F)c2)c2ncc(N3CCOCC3)cn2)C[C@H](CC)N1C(=O)O[C@H]1CC[C@H](C(=O)O)CC1	1.5

Consider now this further molecule.
Consider CC[C@@H]1C[C@H](N(Cc2cc(C(F)(F)F)cc(C(F)(F)F)c2)c2ncc(N3CCOCC3)cn2)C[C@H](CC)N1C(=O)OC(C)C . Its measured clearance is 10
